- Assay Overview: qHTS for Inhibitors of human tyrosyl-DNA phosphodiesterase 1 (TDP1): qHTS in cells in presence of CPT; note: nearly all actives have a fitted effect of over 55% in size; note: potency is the fitted concentration of half-maximal effect
- Protocol Conditions: chicken DT40 Tdp1-/-;hTDP1 cells + 20 nM CPT, ATP luminescence, 48 h; series mostly up to 46.2 µM
In all, about 420,000 compounds went through this assay and about 50,000 (12%) were called active. Roughly 26% stayed inconclusive and do not appear here. The entries come from a sample that favours actives as a whole.
Observable: Potency

Cc1cc(C(=O)N2CCN(c3ccccn3)CC2)c(C)o1: 17.8 µM (active)
CCOC(=O)C1(O)CC(C)=NN1C(=O)c1cccc(Br)c1 (stereo unspecified): inactive
O=C(C(Cl)Cl)N1CCN(c2ccccn2)CC1: inactive
CC(C)Oc1ccc(/C=N/NC(=O)c2nnn(-c3nonc3N)c2CN(C)C2CCCCC2)cc1: inactive
O=C(c1cc2ccccc2s1)N1CCN(c2ccccn2)CC1: inactive
COC(=O)c1ccccc1C(=O)NCc1nc(N2CCCC2)c2cccc(C)c2n1: inactive

* * *

- Assay Overview: qHTS for Inhibitors of human tyrosyl-DNA phosphodiesterase 1 (TDP1): qHTS in cells in presence of CPT; note: nearly all actives have a fitted effect of over 55% in size; note: potency is the fitted concentration of half-maximal effect
- Protocol Conditions: chicken DT40 Tdp1-/-;hTDP1 cells + 20 nM CPT, ATP luminescence, 48 h; series mostly up to 46.2 µM
Out of some 420,000 compounds screened, about 50,000 (12%) were called active. Another 26% or so got no clear call; they are omitted. What follows is part of a selection rich in actives, with near analogues and random picks from the rest.
Observable: Potency

Cc1cccc(C)c1NC(=O)NC1=CCCN1C: inactive
COc1ccc(S(=O)(=O)N2CCOCC2)cc1NC(=O)Cc1coc2cc(C)ccc12: inactive
Cc1nnc(SCC(=O)N2CCOCC2)[nH]c1=O: inactive
O=C(CSc1ccccn1)N1CCN(S(=O)(=O)c2ccc(Cl)cc2)CC1: inactive
O=C(NCCCn1ccnc1)/C(=C\c1ccccc1F)NC(=O)c1ccccc1: inactive
CCCCCCNC(=O)CSc1nccn1Cc1ccccc1: inactive
CS(=O)(=O)N1CCCC(C(=O)Nc2ccccc2C(F)(F)F)C1 (stereo not drawn): inactive
CCCCC[C@H]1CN(C2CCCCC2)C(=O)[C@@H]1CC(=O)NCc1ccc(OC)cc1: 16.4 µM (active)
COc1ccccc1N1CCN(c2ncnc3onc(-c4cccc(Cl)c4)c23)CC1: inactive
CCCCOC(=O)CNc1nnc(SCC(=O)OCC)[nH]c1=O: 10.3 µM (active)
Cc1cc(Cl)ccc1NC(=S)NCCCN1CCCC1=O: inactive
CCN1C(=O)N[C@@H](c2ccccc2)C(C(=O)OC)=C1C: inactive
COc1ccc(CNC(=O)[C@@H]2CC=C[C@@H]3CCN(C4CC4)C(=O)[C@@H]32)cc1: inactive
COc1ccc(-c2noc(-c3ccc(N4CCN(c5ccccc5)CC4)c([N+](=O)[O-])c3)n2)cc1OC: 23.1 µM (active)
CCC(=O)Nc1nc(OC)cc(OC)n1: inactive
COc1ccccc1C(=O)NCCC(=O)NC(C)CCc1ccccc1 (stereo not drawn): inactive
O[C@H]1CN(Cc2cccs2)[C@@H](c2ccc(Cl)cc2)C[C@@H]1n1cc(C2CC2)nn1: inactive
O=C1c2ccccc2C(=O)N1CCCCCCN1C(=O)c2ccccc2C1=O: inactive
Cc1ccc(S(=O)(=O)NCC(=O)N(CC(=O)NCC2CCCO2)c2cccc(F)c2)cc1 (stereo not drawn): inactive
COc1cc(OC)nc(N/N=C(\c2ccccc2)c2ccncc2)n1: inactive
O=P(O)(O)C(O)c1ccc2ccccc2c1 (stereo not drawn): inactive
COC(=O)C1=C(C)N(Cc2ccccc2)C(=NCCCOC(C)C)N[C@H]1c1ccccc1: 6.51 µM (active)
COc1ccc(CNC(=O)C2CCCC2)cc1: inactive

* * *

- Assay Overview: qHTS for Inhibitors of human tyrosyl-DNA phosphodiesterase 1 (TDP1): qHTS in cells in presence of CPT; note: nearly all actives have a fitted effect of over 55% in size; note: potency is the fitted concentration of half-maximal effect
- Protocol Conditions: chicken DT40 Tdp1-/-;hTDP1 cells + 20 nM CPT, ATP luminescence, 48 h; series mostly up to 46.2 µM
About 50,000 (12%) of roughly 420,000 compounds were called active. Not shown: some 26% with an inconclusive outcome. The sample holds actives, similar compounds and a random draw of the others, so the mix is not that of the screen.
Observable: Potency

COc1ccc(S(=O)(=O)N2CCN(CC(=O)N3CCOCC3)CC2)cc1OC: inactive
O=C(CN1C(=O)NC2(CCCC2)C1=O)Nc1cc(C(F)(F)F)ccc1N1CCOCC1: inactive
Cc1ccc(NC(=O)CCNC(=O)c2ccc([N+](=O)[O-])cc2)cc1S(=O)(=O)N1CCOCC1: inactive
COc1cc(OC)cc(-c2nc3ccccc3c(=O)n2NC(=O)c2cccnc2Cl)c1: inactive
COc1cc(/C=C/C(=O)OCC(=O)NC2CC2)cc(OC)c1OC: inactive
O=C(Nn1c(-c2ccc(Cl)cc2)nc2ccccc2c1=O)c1cccnc1Cl: inactive
N/C(=N\OC(=O)N1c2ccccc2Sc2ccccc21)c1ccc(Br)cc1: 20.6 µM (active)
Cc1ccc(C)c(S(=O)(=O)N2CCN(CC(=O)Nc3ccc([N+](=O)[O-])cc3)CC2)c1: 14.6 µM (active)
COc1ccc(S(=O)(=O)N2CCOC2CNC(=O)C(=O)NCc2ccc(F)cc2)cc1 (stereo unspecified): inactive
CCc1ccc(NC(=O)NC(C)c2ccc3c(c2)OCO3)cc1 (stereo unspecified): inactive
Cc1cc(C)cc(NC(=O)CCCc2nc(-c3ccccc3Cl)no2)c1: inactive
CC(=O)Nc1ccc(S(=O)(=O)N2CCSCC2)cc1: inactive
O=S(=O)(c1ccccc1)c1nc(-c2ccccc2F)oc1NCc1cccnc1: inactive
CCN(CC)S(=O)(=O)c1cccc(C(=O)Nc2ccccc2)c1: 20.6 µM (active)
CC1CCCN(C(C(=O)Nc2ccc(C(C)C)cc2)c2ccc3c(c2)OCO3)C1 (stereo unspecified): 18.4 µM (active)
O=C(NCCCN1CCCC1=O)C(=O)NCC1OCCN1S(=O)(=O)c1ccc(Br)cc1 (stereo unspecified): 18.4 µM (active)
COc1ccccc1C(=O)Nn1c(-c2cccs2)nc2ccccc2c1=O: 18.4 µM (active)
CC(=O)Nc1ccc(S(=O)(=O)N2CCN(CCCOc3cc(C)ccc3C)CC2)cc1: 25.9 µM (active)
CCOc1ccc(N(CC(=O)NCCc2ccc(OC)cc2)S(C)(=O)=O)cc1: inactive
CN(C)S(=O)(=O)c1cccc(C(=O)Nc2cccnc2)c1: inactive
N/C(=N\OC(=O)c1ccc2c(c1)OCO2)c1ccc(Br)cc1: inactive

* * *

- Assay Overview: qHTS for Inhibitors of human tyrosyl-DNA phosphodiesterase 1 (TDP1): qHTS in cells in presence of CPT; note: nearly all actives have a fitted effect of over 55% in size
- Protocol Conditions: chicken DT40 Tdp1-/-;hTDP1 cells + 20 nM CPT, ATP luminescence, 48 h; series mostly up to 46.2 µM
Hit rate of the full screen: of about 420,000 compounds, about 50,000 (12%) were called active. Roughly 26% stayed inconclusive and do not appear here. Calls follow the shape of the dose curve; as a rule, active = well fitted inhibition curve with a large enough effect; inconclusive = small, poorly fitted or top-dose-only effect; inactive = flat fitted curve, though single readings scatter. What follows is part of a selection rich in actives, with near analogues and random picks from the rest.
Outcome codes: active, inactive

COc1ccccc1CC(NC(C)=O)C(=O)NC1CCN(C(=O)Nc2ccccc2Cl)CC1 (centres undefined): inactive
CCn1cc(CNC(=O)c2cc([N+](=O)[O-])c(C)c([N+](=O)[O-])c2)cn1: inactive
CC(=O)Nc1ccc(CN2CCC(Oc3ccc(C(=O)N4CCCC4)cc3)CC2)cc1: inactive
NS(=O)(=O)c1ccc(CCNC(=O)COC(=O)COc2cccc(C(F)(F)F)c2)cc1: inactive
CC(=O)c1ccc(NC(=O)C(C)NCc2ccc(Cl)cc2)cc1 (centres undefined): inactive
O=C(CSc1nc(O)c(Cc2ccccc2)c(=O)[nH]1)Nc1nc2c(s1)CCCC2: inactive
O=C(c1ccccc1)c1ccc2nc(N3CCCCC3)c3nncn3c2c1: active
CO/N=C(\C(=O)N[C@@H]1C(=O)N2C(C(=O)O)=C(COC(C)=O)CS[C@H]12)c1csc(N)n1 (stereo in doubt): inactive
c1ccc(CC2CCN(c3nc4ccccc4n4cnnc34)CC2)cc1: inactive

* * *

- Assay Overview: qHTS for Inhibitors of human tyrosyl-DNA phosphodiesterase 1 (TDP1): qHTS in cells in presence of CPT; note: nearly all actives have a fitted effect of over 55% in size
- Protocol Conditions: chicken DT40 Tdp1-/-;hTDP1 cells + 20 nM CPT, ATP luminescence, 48 h; series mostly up to 46.2 µM
About 50,000 (12%) of roughly 420,000 compounds were called active. Inconclusive results (about 26%) are left out. Calls follow the shape of the dose curve; as a rule, active = well fitted inhibition curve with a large enough effect; inconclusive = small, poorly fitted or top-dose-only effect; inactive = flat fitted curve, though single readings scatter. This excerpt belongs to a sample that is enriched for actives.
Outcomes: 1.0 (active), 0.0 (inactive)

COc1ccc(/C=N/N(C)C2=NS(=O)(=O)c3ccccc32)cc1OC: 0.0
Cc1ccc(S(=O)(=O)C2(S(=O)(=O)c3ccc(C)cc3)CCCC2)cc1: 1.0
O=C(CCN1C(=O)/C(=C/c2cccs2)SC1=S)NNC(=O)c1cccc(O)c1: 0.0
O=C(Nc1c2c(nn1-c1ccccc1)CS(=O)(=O)C2)C1CCCC1: 0.0
O=C1/C(=C/c2cccs2)SC(=S)N1C1CCS(=O)(=O)C1 (stereo not given): 1.0
